Each recorded value in this set is attributed to ChEMBL document CHEMBL1140074.

# Target under test: DNA polymerase I, thermostable (Thermus aquaticus, UniProt P19821)
# Sequence (P19821 whole entry): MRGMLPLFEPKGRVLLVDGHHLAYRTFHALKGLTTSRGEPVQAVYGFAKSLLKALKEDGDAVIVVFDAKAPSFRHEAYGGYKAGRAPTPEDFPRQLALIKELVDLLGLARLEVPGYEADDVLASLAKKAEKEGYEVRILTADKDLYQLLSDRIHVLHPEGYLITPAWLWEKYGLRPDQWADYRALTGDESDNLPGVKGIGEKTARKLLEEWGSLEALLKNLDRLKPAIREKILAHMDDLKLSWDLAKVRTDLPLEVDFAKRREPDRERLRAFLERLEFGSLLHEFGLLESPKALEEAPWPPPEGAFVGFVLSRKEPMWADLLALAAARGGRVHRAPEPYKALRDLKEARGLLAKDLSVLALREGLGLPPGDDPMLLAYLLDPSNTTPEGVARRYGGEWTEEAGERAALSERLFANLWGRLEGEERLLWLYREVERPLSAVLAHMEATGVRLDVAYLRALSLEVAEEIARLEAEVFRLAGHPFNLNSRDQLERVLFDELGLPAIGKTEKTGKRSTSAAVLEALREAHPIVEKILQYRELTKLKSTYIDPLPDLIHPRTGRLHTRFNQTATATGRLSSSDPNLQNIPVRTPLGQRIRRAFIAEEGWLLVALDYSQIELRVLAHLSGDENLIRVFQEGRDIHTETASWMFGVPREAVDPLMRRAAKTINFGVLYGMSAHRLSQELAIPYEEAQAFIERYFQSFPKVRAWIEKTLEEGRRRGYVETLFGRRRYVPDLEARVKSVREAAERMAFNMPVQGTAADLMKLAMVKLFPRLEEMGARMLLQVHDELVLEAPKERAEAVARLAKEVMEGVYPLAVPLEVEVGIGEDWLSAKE
# Protocol description: Inhibition of Taq polymerase
Reported EC50 values are given for each entry in this list.

{"Sample smiles": "N[C@@H](CO)C(=O)NCCNC(=O)c1ccc2c(c1)C(=O)c1ccc(C(=O)NCCNC(=O)[C@@H](N)CO)cc1C2=O", "Endpoint name": "EC50", "Endpoint result": "> 40 µM"}

Recall the reported EC50 of `N[C@@H](Cc1ccccc1)C(=O)NCC(=O)Nc1ccc2c(c1)C(=O)c1ccc(NC(=O)CNC(=O)[C@@H](N)Cc3ccccc3)cc1C2=O` when tested on DNA polymerase I, thermostable (Thermus aquaticus, UniProt P19821).
> 40 µM

Recall the reported EC50 of `CC[C@H](C)[C@H](N)C(=O)NCC(=O)Nc1ccc2c(c1)C(=O)c1ccc(NC(=O)CNC(=O)[C@@H](N)[C@@H](C)CC)cc1C2=O` when tested on DNA polymerase I, thermostable (Thermus aquaticus, UniProt P19821).
> 40 µM

Recall the reported EC50 of `NCCCC[C@H](N)C(=O)NCC(=O)Nc1ccc2c(c1)C(=O)c1ccc(NC(=O)CNC(=O)[C@@H](N)CCCCN)cc1C2=O` when tested on DNA polymerase I, thermostable (Thermus aquaticus, UniProt P19821).
5 µM

Recall the reported EC50 of `NCC(=O)NCC(=O)Nc1ccc2c(c1)C(=O)c1ccc(NC(=O)CNC(=O)CN)cc1C2=O` when tested on DNA polymerase I, thermostable (Thermus aquaticus, UniProt P19821).
> 40 µM

Recall the reported EC50 of `N=C(N)NCCC[C@H](N)C(=O)NCCNC(=O)c1ccc2c(c1)C(=O)c1ccc(C(=O)NCCNC(=O)[C@@H](N)CCCNC(=N)N)cc1C2=O` when tested on DNA polymerase I, thermostable (Thermus aquaticus, UniProt P19821).
10 µM

Recall the reported EC50 of `NCCCC[C@H](N)C(=O)NCCNC(=O)c1ccc2c(c1)C(=O)c1cc(C(=O)NCCNC(=O)[C@@H](N)CCCCN)ccc1C2=O` when tested on DNA polymerase I, thermostable (Thermus aquaticus, UniProt P19821).
> 40 µM

---

# Species on record: Homo sapiens
# Protocol description: Binding affinity to human telomeric DNA sequence assessed as stabilization of G-quadruplex at 10 uM by thermal denaturation
Endpoint name: ΔTm (°C)

Here's what some known entries look like.
{"Sample smiles": "CC(C)C[C@H](N)C(=O)NCCNC(=O)c1ccc2c(c1)C(=O)c1ccc(C(=O)NCCNC(=O)[C@@H](N)CC(C)C)cc1C2=O", "Endpoint name": "ΔTm", "Unit name": "°C", "Endpoint result": 1.3}
{"Sample smiles": "N=C(N)NCCC[C@H](N)C(=O)NCC(=O)Nc1ccc2c(c1)C(=O)c1ccc(NC(=O)CNC(=O)[C@@H](N)CCCNC(=N)N)cc1C2=O", "Endpoint name": "ΔTm", "Unit name": "°C", "Endpoint result": 22.9}
{"Sample smiles": "NCCCC[C@H](N)C(=O)NCCC(=O)Nc1ccc2c(c1)C(=O)c1ccc(NC(=O)CCNC(=O)[C@@H](N)CCCCN)cc1C2=O", "Endpoint name": "ΔTm", "Unit name": "°C", "Endpoint result": 17.2}

1: N=C(N)NCCC[C@H](N)C(=O)NCCNC(=O)c1ccc2c(c1)C(=O)c1cc(C(=O)NCCNC(=O)[C@@H](N)CCCNC(=N)N)ccc1C2=O
2: CC[C@H](C)[C@H](N)C(=O)NCCNC(=O)c1ccc2c(c1)C(=O)c1cc(C(=O)NCCNC(=O)[C@@H](N)[C@@H](C)CC)ccc1C2=O
3: N[C@@H](Cc1ccccc1)C(=O)NCCNC(=O)c1ccc2c(c1)C(=O)c1cc(C(=O)NCCNC(=O)[C@@H](N)Cc3ccccc3)ccc1C2=O
4: N[C@@H](Cc1ccccc1)C(=O)NCCC(=O)Nc1ccc2c(c1)C(=O)c1ccc(NC(=O)CCNC(=O)[C@@H](N)Cc3ccccc3)cc1C2=O
Task field, ranking: reported ΔTm, descending order. Provide the labels, sequenced as the question asks.
1, 4, 2, 3
